Cited source: patent US4721715A

# assay.explanation: Toxicity, intravenous administration to mice
# Assay type: in vivo
# run.parameters: mouse, in vivo, intravenous, 50 mg/kg, read-out: mortality rate
Counter-ions that a name gives are not always drawn.
property: mortality
Remember to follow the number with its unit.

Incoming: Entry under review: CCOc1ccccc1N1CCN(CCOc2cc(C)c(O)cc2C(C)C)CC1 [COR 2865, hydrochloride] . Reported mortality?
Outgoing: 5%

###

# assay.explanation: Toxicity, intravenous administration to mice
# Type: in vivo
# run.parameters: mouse, in vivo, intravenous route
Structures can show the parent of a compound that is named as a salt.
property: LD50 (mg/kg)
Return type: number; implicit unit mg/kg.

Incoming: Dear colleague, I am looking for the recorded LD50 of the following molecule: COc1ccccc1N1CCN(CCOc2cc(C)c(O)cc2C(C)C)CC1 [COR 2831, hydrochloride]
Outgoing: 86

###

# assay.explanation: Toxicity, intravenous administration to mice
# Type: in vivo
# run.parameters: mouse, in vivo, intravenous, 12.5 mg/kg, read-out: mortality rate
Structures can show the parent of a compound that is named as a salt.
property: mortality (%)
The reply should contain only the number, in %.

Incoming: Bench note: what mortality did CCOc1ccccc1N1CCN(CCOc2cc(C)c(O)cc2C(C)C)CC1 [COR 2865, hydrochloride] show?
Outgoing: 10
